Data provenance: ChEMBL document CHEMBL3425496

Assay: Apparent permeability from apical to basolateral side in human Caco2 cells by LC-MS analysis
Assay type: ADME, cell-based
Conditions: Caco-2
Square brackets hold non-standard residues; d marks the D form. Peptide text beside a SMILES is read from it. NMeT = CN[C@H](C(=O)O)[C@@H](C)O; Sar = CNCC(=O)O
# Papp A→B annotations
Answer with a number only, understood to be in ×10⁻⁶ cm/s.

Examples from the recorded data:
-- ask Could you share which Papp A→B value was measured for CC[C@H](C)[C@@H]1NC(=O)[C@H](C(C)C)NC(=O)[C@H](CC(C)C)NC(=O)CNC(=O)[C@@H]2CCCN2C(=O)[C@H](Cc2ccc(O)cc2)NC1=O (cyclo(GLVIYP)) ?
-- reply 0.11

-- ask Could you share which Papp A→B value was measured for CC(C)C[C@@H]1NC(=O)[C@H](Cc2ccccc2)NC(=O)[C@H]([C@@H](C)O)N(C)C(=O)CN(C)C(=O)[C@H]([C@@H](C)O)NC(=O)[C@H](Cc2ccc(O)cc2)NC1=O (cyclo(FLYT[Sar][NMeT])) ?
-- reply 0.1

-- ask Could you share which Papp A→B value was measured for `CC(C)C[C@@H]1NC(=O)[C@H](CC(C)C)N(C)C(=O)[C@@H](CC(C)C)N(C)C(=O)[C@H](Cc2ccc(O)cc2)NC(=O)[C@@H]2CCCN2C(=O)[C@H](CC(C)C)N(C)C1=O` ?
-- reply 13.9

More entries:
-- ask Could you share which Papp A→B value was measured for `C[C@@H](O)[C@@H]1NC(=O)[C@@H](CCCCN)NC(=O)[C@@H](Cc2c[nH]c3ccccc23)NC(=O)[C@H](Cc2ccccc2)NC(=O)[C@@H]2CCCN2C(=O)[C@@H](Cc2ccccc2)NC1=O` ?
-- reply 0.2

-- ask Could you share which Papp A→B value was measured for `CC(C)C[C@@H]1NC(=O)[C@H](Cc2c[nH]c3ccccc23)NC(=O)[C@@H]2CCCN2C(=O)[C@H]2CCCN2C(=O)[C@@H](CC(C)C)NC(=O)[C@H](CC(C)C)NC1=O` ?
-- reply 0.21

-- ask Could you share which Papp A→B value was measured for `CC(C)C[C@H]1NC(=O)[C@H](Cc2ccccc2)NC(=O)CN(C)C(=O)[C@@H](C)N(C)C(=O)[C@H](Cc2ccc(O)cc2)NC(=O)[C@@H]2CCCN2C1=O` ?
-- reply 0.63

----------
Experiment: Apparent permeability from apical to basolateral side in human Caco2 cells by LC-MS analysis
Assay type: ADME, cell-based
Conditions: Caco-2
Peptide text beside a SMILES is read from it.
recordedMetric: Papp A→B

-- ask Could you share which Papp A→B value was measured for `CC(C)C[C@@H]1NC(=O)[C@H](Cc2c[nH]c3ccccc23)NC(=O)[C@H]2CCCN2C(=O)[C@H](CC(C)C)NC(=O)[C@H](CC(C)C)NC(=O)[C@@H](CC(C)C)NC1=O` ?
-- reply 5.95 ×10⁻⁶ cm/s

-- ask Could you share which Papp A→B value was measured for CC(C)C[C@@H]1NC(=O)CNC(=O)[C@@H]2CCCN2C(=O)[C@H](Cc2ccc(O)cc2)NC(=O)[C@H](Cc2ccccc2)NC(=O)[C@@H]2CCCN2C1=O (cyclo(FYPGLP)) ?
-- reply 0.11 ×10⁻⁶ cm/s

Field: next molecule
-- ask Could you share which Papp A→B value was measured for `CC(C)C[C@@H]1NC(=O)[C@@H](CC(C)C)N(C)C(=O)[C@H](CC(C)C)NC(=O)[C@H](Cc2ccc(O)cc2)N(C)C(=O)[C@H]2CCCN2C(=O)[C@H](CC(C)C)NC1=O` ?
-- reply 7.75 ×10⁻⁶ cm/s

----------
Test: Apparent permeability of the compound at 50 uM after 5 hrs by PAMPA method
Format: physicochemical
Square brackets hold non-standard residues; d marks the D form. Peptide text beside a SMILES is read from it. dNMeL = CN[C@H](CC(C)C)C(=O)O
Note to self: Papp at 5 h, 50 µM under 2 nm/s means Y, ties and anything higher get N.

Below, 4 molecules whose answers are already recorded.
-- ask Below 2 nm/s on Papp at 5 h, 50 µM? Entry `CC(C)C[C@@H]1NC(=O)[C@H](Cc2ccccc2)NC(=O)[C@@H](CC(C)C)N(C)C(=O)[C@H](CC(C)C)N(C)C(=O)[C@H](Cc2ccc(O)cc2)NC(=O)[C@@H]2CCCN2C1=O`
-- reply N

-- ask Below 2 nm/s on Papp at 5 h, 50 µM? Entry `CC(C)C[C@@H]1NC(=O)[C@H](Cc2ccc(O)cc2)NC(=O)[C@@H]2CCCN2C(=O)[C@@H](CC(C)C)NC(=O)[C@@H](CC(C)C)N(C)C(=O)[C@@H](CC(C)C)N(C)C1=O`
-- reply N

-- ask Below 2 nm/s on Papp at 5 h, 50 µM? Entry `CC(C)C[C@H]1NC(=O)[C@H](Cc2ccccc2)NC(=O)CN(C)C(=O)[C@@H](C)N(C)C(=O)[C@H](Cc2ccc(O)cc2)NC(=O)[C@@H]2CCCN2C1=O`
-- reply Y

-- ask Below 2 nm/s on Papp at 5 h, 50 µM? Entry `CC(C)C[C@H]1C(=O)N2CCC[C@@H]2C(=O)N(C)[C@@H](Cc2ccc(O)cc2)C(=O)N[C@@H](C)C(=O)NCC(=O)N(C)[C@@H](Cc2ccccc2)C(=O)N1C`
-- reply Y

Consider the additional molecule presented here.
-- ask Below 2 nm/s on Papp at 5 h, 50 µM? Entry CC(C)C[C@@H]1NC(=O)[C@@H](CC(C)C)N(C)C(=O)[C@H](CC(C)C)NC(=O)[C@H](Cc2ccc(O)cc2)NC(=O)[C@H]2CCCN2C(=O)[C@H](CC(C)C)NC1=O (cyclo(LL[dP]YL[dNMeL]))
-- reply N

----------
# Papp A→B annotations
Assay: Apparent permeability from apical to basolateral side in human Caco2 cells by LC-MS analysis
Type: ADME, cell-based
Conditions: Caco-2
Answer with a number only, understood to be in ×10⁻⁶ cm/s.

-- ask Could you share which Papp A→B value was measured for `CC(C)C[C@H]1C(=O)N2CCC[C@@H]2C(=O)N(C)[C@@H](Cc2ccc(O)cc2)C(=O)N[C@@H](C)C(=O)NCC(=O)N(C)[C@@H](Cc2ccccc2)C(=O)N1C` ?
-- reply 0.1

Field: next molecule
-- ask Could you share which Papp A→B value was measured for `CC(C)C[C@H]1NC(=O)[C@H](CC(C)C)N(C)C(=O)[C@H](CC(C)C)N(C)C(=O)[C@H](Cc2ccc(O)cc2)NC(=O)[C@@H]2CCCN2C(=O)[C@H]2CCCN2C1=O` ?
-- reply 5.45

----------
Assay: Apparent permeability from apical to basolateral side in human Caco2 cells by LC-MS analysis
Format: ADME, cell-based
Settings: Caco-2
# Papp A→B annotations
Answer with a number only, understood to be in ×10⁻⁶ cm/s.

Examples from the recorded data:
-- ask Could you share which Papp A→B value was measured for `C[C@@H](O)[C@@H]1NC(=O)[C@H](CCCCN)NC(=O)[C@@H](Cc2c[nH]c3ccccc23)NC(=O)[C@H](Cc2ccccc2)NC(=O)[C@@H]2CCCN2C(=O)[C@H](Cc2ccccc2)NC1=O` ?
-- reply 0.93

-- ask Could you share which Papp A→B value was measured for `CC(C)C[C@H]1NC(=O)[C@H](Cc2ccccc2)NC(=O)CNC(=O)[C@@H](C)NC(=O)[C@H](Cc2ccc(O)cc2)NC(=O)[C@@H]2CCCN2C1=O` ?
-- reply 0.58

Field: next compound
-- ask Could you share which Papp A→B value was measured for `CC(C)C[C@@H]1NC(=O)[C@H](Cc2c[nH]c3ccccc23)NC(=O)[C@H]2CCCN2C(=O)[C@@H](CC(C)C)NC(=O)[C@@H](CC(C)C)NC(=O)[C@@H](CC(C)C)NC1=O` ?
-- reply 9.46

----------
Assay: Apparent permeability of the compound at 50 uM after 5 hrs by PAMPA method
Assay type: physicochemical
Square brackets hold non-standard residues; d marks the D form. Peptide text beside a SMILES is read from it. NMeL = CN[C@@H](CC(C)C)C(=O)O; Sar = CNCC(=O)O
recordedMetric: Papp at 5 h, 50 µM (nm/s)
Answer with a number only, understood to be in nm/s.

Examples from the recorded data:
-- ask Could you share which Papp at 5 h, 50 µM value was measured for CC(C)C[C@@H]1NC(=O)[C@H](Cc2ccc(O)cc2)NC(=O)[C@H]2CCCN2C(=O)[C@H](CC(C)C)NC(=O)[C@H](CC(C)C)N(C)C(=O)[C@@H](CC(C)C)NC1=O (cyclo(L[dL][NMeL]L[dP]Y)) ?
-- reply 7.6

-- ask Could you share which Papp at 5 h, 50 µM value was measured for CC(C)C[C@@H]1NC(=O)[C@H](Cc2ccccc2)NC(=O)[C@H]([C@@H](C)O)NC(=O)CN(C)C(=O)[C@H]([C@@H](C)O)NC(=O)[C@H](Cc2ccc(O)cc2)NC1=O (cyclo(FLYT[Sar]T)) ?
-- reply 0.2

-- ask Could you share which Papp at 5 h, 50 µM value was measured for `CC(C)C[C@@H]1NC(=O)[C@@H](CC(C)C)N(C)C(=O)[C@H](CC(C)C)NC(=O)[C@H](Cc2ccc(O)cc2)N(C)C(=O)[C@H]2CCCN2C(=O)[C@H](CC(C)C)NC1=O` ?
-- reply 15.1

-- ask Could you share which Papp at 5 h, 50 µM value was measured for `C[C@@H](O)[C@@H]1NC(=O)[C@H](CCCCN)NC(=O)[C@@H](Cc2c[nH]c3ccccc23)NC(=O)[C@H](Cc2ccccc2)NC(=O)[C@@H]2CCCN2C(=O)[C@H](Cc2ccccc2)NC1=O` ?
-- reply 0.8

-- ask Could you share which Papp at 5 h, 50 µM value was measured for CC[C@H](C)[C@@H]1NC(=O)[C@H](Cc2ccc(O)cc2)NC(=O)[C@H](Cc2ccccc2)NC(=O)CNC(=O)[C@H](C(C)C)NC(=O)CNC1=O (cyclo(FYIGVG)) ?
-- reply 0.1

Field: next compound
-- ask Could you share which Papp at 5 h, 50 µM value was measured for `CC(C)C[C@@H]1NC(=O)[C@@H](CC(C)C)NC(=O)[C@H](Cc2ccccc2)NC(=O)CNC(=O)[C@@H](C)NC(=O)[C@H](Cc2ccc(O)cc2)NC1=O` ?
-- reply 0.2
